Value source: PubChem BioAssay (NCATS)

- System: MCC-13
- Assay info: qHTS assay to identify novel small-molecules to repurpose for Merkel cell carcinoma treatment (AID 1296009); note: % is set by controls: 0 for no effect and ±100 for the full control effect; nearly all actives have a fitted effect of over 60% in size
- Assay conditions: MCC and control cell lines, CellTiter-Glo viability, 72 h; series mostly up to 46 µM
Results filed as inconclusive are left out. Activity calls are given as the source filed them. Calls come from the whole dose curve; as a rule, active = well fitted inhibition curve with a large enough effect; inconclusive = small, poorly fitted or top-dose-only effect; inactive = flat fitted curve, though single readings scatter.
Allowed answers: True for active, False for inactive

COc1nc(C)cnc1NS(=O)(=O)c1cccnc1-c1ccc(-c2nnco2)cc1 :: False

How did this test come out for Cc1ccc2c(c1)C(=O)[C@]1(O)CCN(c3ccccc3)C1=N2 ?
False

How did this test come out for OC1CCC(Nc2ncc3nc(Nc4c(F)cc(F)cc4F)n([C@@H]4CCOC4)c3n2)CC1 (some centres not stated) ?
False

====

- Assay info: Quantitative High-Throughput drug screen in 47 multiple myeloma cell lines against the NCATS MIPE library collection: NCIH929_DSMZ cell viability assay (AID 1918978); note: nearly all actives have a fitted effect of over 35% in size
- Assay conditions: NCI-H929 myeloma viability, CellTiter-Glo ATP, 48 h; series mostly up to 45.8 µM
Results filed as inconclusive are left out. The source made the active and inactive calls. Calls come from the whole dose curve; as a rule, active = well fitted cell-killing curve with a large enough effect; inconclusive = small, poorly fitted or top-dose-only effect; inactive = no such curve, though single readings can be large or run the other way.
Allowed answers: active, inactive

O=C(O)c1ccc(O)c2ncc(N3CCOCC3)cc12 :: active
OC(c1cc(C(F)(F)F)nc2c(C(F)(F)F)cccc12)C1CCCCN1 (configuration not stated) :: active
NC(=O)c1ccc(N(C(N)=O)c2c(F)cccc2F)nc1-c1ccc(F)cc1F :: active
O=C(CO)N1CCC(c2[nH]nc(-c3ccc(Cl)cc3)c2-c2ccncn2)CC1 :: inactive
CN1CCC(COc2cnc(-c3cccc(Cn4nc(-c5cccc(C#N)c5)ccc4=O)c3)nc2)CC1 :: active
CCCCn1c(=O)n(Cc2ccccc2F)c(=O)c2[nH]c(Cc3ccc(NC(C)=O)cc3)nc21 :: inactive

// switching to the query compound
How did this test come out for CN1CCN(c2ncc(-c3cc(Cl)cc(Cl)c3Cl)c(N)n2)CC1 ?
active

====

- Test system: HEK293
- Assay info: Cytotoxic Profiling of Annotated Libraries Using Quantitative High-Throughput Screening (AID 1296008); note: % is set by controls: 0 for no effect and ±100 for the full control effect; nearly all actives have a fitted effect of over 60% in size
- Assay conditions: Five cell lines viability, CellTiter-Glo ATP luminescence, 48-72 h; hits give low values
Inconclusive results are not listed. Activity calls are given as the source filed them. The call rests on the fitted dose curve; in most records, active means well fitted inhibition curve with a large enough effect; inconclusive means small, poorly fitted or top-dose-only effect; inactive means flat fitted curve, though single readings scatter.
Each entry below carries its reported max response.

# count of solved cases: 6
Cc1ccc(C(=O)N(CCCN)[C@@H](c2nc3cc(Cl)ccc3c(=O)n2Cc2ccccc2)C(C)C)cc1 :: -91.6% (inactive)
Cc1cc2c(cc1C1(c3ccc(C(=O)O)cn3)CC1)C(C)(C)CCC2(C)C :: -8.08% (inactive)
CC[C@H](C=C[C@@H](C)[C@H]1CC[C@H]2[C@@H]3CC=C4C[C@@H](O)CC[C@]4(C)[C@@H]3CC[C@]12C)C(C)C :: 3.5% (inactive)
OC[C@H]1O[C@@H](OCCc2ccc(O)cc2)[C@H](O)[C@@H](O)[C@H]1O :: 0.731% (inactive)
CCC[C@H](Nc1nc(-c2ccc(NC(=O)NCC)c(OC)c2)ncc1C)c1cccnc1 :: -101% (inactive)
CCC=CC[C@H]1C(=O)CC[C@@H]1CC(=O)OC :: 3.57% (inactive)

Entry CN[C@@H]1[C@@H](O)[C@@H](O[C@@H]2[C@@H](O)[C@H](O[C@H]3O[C@H](CN)[C@@H](O)[C@H](O)[C@@H]3O)[C@@H](N)C[C@@H]2NC(=O)[C@@H](O)CN)OC[C@]1(C)O — recorded max response = 3.66% (inactive)

Entry N[C@@H](CC(=O)N1CCn2c(nnc2C(F)(F)F)C1)Cc1cc(F)c(F)cc1F — recorded max response = 1.14% (inactive)
